Cited source: the supplement of paper PMC12636428

Tested on: Saccharomyces cerevisiae
Assay: transcriptional activation domain activity (GFP:mCherry ratio, weighted mean of sorted bins, harmonized to initial dataset scale) (arbitrary fluorescence ratio units); higher = stronger transcriptional activation
Details: beta-estradiol 1 µM; induction time 4 h
measuredProperty: transcriptional activation domain activity
Numbers only.

Here are 5 sequences together with their reported answers.
| itemSequence | testValue |
| --- | --- |
| MHTPFLFLPPCPSRTRLLLFFSLILFLLVLVPAPCHAQPWNLGTLFFIFWLAS | 52700 |
| CIIIVFIIRFLVLDLIGMFVCIYWVSFLFYFILFYFISRMVLHRVFFFFSFLI | 49700 |
| VVVKVALLLRWLVMVYDVLDGHTMLSQLYGLLFNCLDMISLRTHICHLLSLLT | 27000 |
| IMYTSHHDPKHCFEETRDGTLKVHVIGDWLPRGIFGKMYILFAILRQLVLVLW | 74900 |
| IQNEDKFAESKNLSLDEFLKIFNGIYYERLRYDFNVVVIILLLTLFNHCKDFY | 52700 |

List the reported transcriptional activation domain activity of each sequence below.
1. SEAESEAEAEAEEATEPEVSQEKPKRGRKKKEVEVEIKEKPSRKPAGRPKKEK
2. MDLVLCIGLFGHIPYHLQYSLPFVSFFFSHNIVHYSEMHYFGVVNSGILWLGF
3. IVLGFLPIKSWQQHCFYIIMSFGSFVSTAFYSRFVELWGLLWPLWYLTILICV
4. ETPAAEPVKETETAAEAAPAEAAAEATPEEAKEEKKEEKKEEKVKGSKVGRRL
5. MVQCAVAECTEEGKSQCGRCKQRFYCSADCQQKDWKVHKKNCKSPAATSAQLS
6. AKKAKQEATTEGGEEGSTGKTAKAKETPPTEQKEGGEKKAKATKARGKAGKEA
7. AGDKPEKSKKDKKKEKEEKKKAAVAAEKEKQEKGDEAVAAAPSPVAAATPSLL
8. WHVAYPLVATGLCVAPQEFFLKHWLAFLREKGTRSFVLNGMLRLLWTYLYRCQ

1. 12300
2. 63300
3. 42600
4. 32500
5. 23100
6. 27300
7. 29900
8. 45800
